Source of measurements: ChEMBL document CHEMBL3301458

biological target: UniProt Q12809; experiment: in vitro
Sequence (Q12809 whole entry): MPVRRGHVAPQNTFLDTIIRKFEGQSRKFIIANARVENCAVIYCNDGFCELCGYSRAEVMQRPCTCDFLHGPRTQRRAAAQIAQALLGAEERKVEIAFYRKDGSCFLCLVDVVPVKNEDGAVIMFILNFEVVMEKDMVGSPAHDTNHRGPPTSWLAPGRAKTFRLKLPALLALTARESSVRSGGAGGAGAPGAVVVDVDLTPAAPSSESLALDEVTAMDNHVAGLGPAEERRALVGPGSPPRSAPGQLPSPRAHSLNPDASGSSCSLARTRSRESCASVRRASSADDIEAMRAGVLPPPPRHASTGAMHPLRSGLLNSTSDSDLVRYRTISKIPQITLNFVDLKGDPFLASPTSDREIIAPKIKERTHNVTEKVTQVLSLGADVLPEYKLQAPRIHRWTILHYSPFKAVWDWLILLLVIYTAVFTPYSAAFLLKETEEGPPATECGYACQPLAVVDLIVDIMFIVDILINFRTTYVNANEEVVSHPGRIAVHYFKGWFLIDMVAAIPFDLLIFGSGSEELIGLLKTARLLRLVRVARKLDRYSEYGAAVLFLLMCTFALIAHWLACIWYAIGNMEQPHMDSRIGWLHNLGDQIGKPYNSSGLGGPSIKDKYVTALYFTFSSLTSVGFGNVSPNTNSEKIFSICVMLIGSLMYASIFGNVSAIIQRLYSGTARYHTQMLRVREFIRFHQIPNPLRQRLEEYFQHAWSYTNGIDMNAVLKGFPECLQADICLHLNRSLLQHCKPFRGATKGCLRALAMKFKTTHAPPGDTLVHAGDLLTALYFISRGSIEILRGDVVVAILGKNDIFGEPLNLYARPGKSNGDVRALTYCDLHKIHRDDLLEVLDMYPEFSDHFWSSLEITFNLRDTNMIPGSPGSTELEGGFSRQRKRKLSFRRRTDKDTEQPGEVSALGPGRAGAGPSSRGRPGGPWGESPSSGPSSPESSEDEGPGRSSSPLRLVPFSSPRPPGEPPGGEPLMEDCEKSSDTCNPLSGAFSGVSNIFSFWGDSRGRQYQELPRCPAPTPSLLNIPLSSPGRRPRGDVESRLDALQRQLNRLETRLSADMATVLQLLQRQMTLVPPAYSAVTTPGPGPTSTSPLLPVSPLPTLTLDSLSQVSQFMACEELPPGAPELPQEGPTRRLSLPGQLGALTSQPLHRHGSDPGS
Description: MMV: Malaria Box compounds were tested for inhibition of the human ether a go-go related gene (hERG), Kv11.1 channel, using IonWorks 384-well patch clamp electrophysiology at 11.1uM (3 independent assay plates up to 12 cells per concentration).
The source made the active and inactive calls. How the calls were made is not given here.
Your response should consist of one outcome taken from active, inactive

Tell me the recorded outcome of this test for CCCCCCc1cc(O)c2c3c(c(=O)oc2c1)CCC(C)C3 (centres undefined) .
inactive

Tell me the recorded outcome of this test for COC(=O)c1ccc(Cl)c2c1C1C=CCC1C(c1cccc3ccccc13)N2 (centres undefined) .
active

Tell me the recorded outcome of this test for OC(Cn1nnc2ccccc21)Cn1c2ccc(Br)cc2c2cc(Br)ccc21 (centres undefined) .
inactive

Tell me the recorded outcome of this test for CCOC(=O)C1=C(C)N=c2sc(=Cc3cc(Cl)ccc3O)c(=O)n2C1c1ccc(OC)cc1 (centres undefined) .
inactive
